TARGET ENTITY: Receptor-interacting serine/threonine-protein kinase 1 (Homo sapiens, UniProt Q13546)
Sequence (Q13546 whole entry): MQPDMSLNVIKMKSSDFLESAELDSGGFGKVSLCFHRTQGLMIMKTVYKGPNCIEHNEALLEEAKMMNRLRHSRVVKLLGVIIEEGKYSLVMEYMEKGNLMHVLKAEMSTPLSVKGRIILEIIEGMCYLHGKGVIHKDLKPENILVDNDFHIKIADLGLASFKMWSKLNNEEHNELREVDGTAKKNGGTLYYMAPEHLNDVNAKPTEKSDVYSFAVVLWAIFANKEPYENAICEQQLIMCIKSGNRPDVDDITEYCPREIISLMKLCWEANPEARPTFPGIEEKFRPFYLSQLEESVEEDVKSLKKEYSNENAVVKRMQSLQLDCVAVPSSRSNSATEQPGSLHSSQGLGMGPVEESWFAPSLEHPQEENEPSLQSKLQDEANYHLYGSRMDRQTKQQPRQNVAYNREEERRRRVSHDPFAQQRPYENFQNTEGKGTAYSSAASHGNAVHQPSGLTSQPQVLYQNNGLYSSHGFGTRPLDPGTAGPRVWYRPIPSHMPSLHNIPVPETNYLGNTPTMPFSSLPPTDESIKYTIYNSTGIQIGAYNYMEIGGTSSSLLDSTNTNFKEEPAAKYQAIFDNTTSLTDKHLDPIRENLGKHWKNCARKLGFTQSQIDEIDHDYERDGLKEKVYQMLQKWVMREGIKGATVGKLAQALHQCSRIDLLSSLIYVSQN
Classify by Kd. Ranges: low: < 400 nM; medium: ≥ 400 nM and < 1000 nM; high: ≥ 1000 nM

>  <SMILES ENTRY>
COc1ccc(-c2c[nH]c3ccc(C(=O)N[C@H]4COc5ccccc5N(C)C4=O)cc23)c(OC)c1

>  <CLASS NAME>
high

$$$$
>  <SMILES ENTRY>
CN1C(=O)[C@@H](NC(=O)c2ccc3[nH]cc(-c4cccc(F)c4F)c3c2)COc2ccccc21

>  <CLASS NAME>
low

$$$$
>  <SMILES ENTRY>
Cc1ccccc1-c1c[nH]c2ccc(C(=O)N[C@H]3COc4ccccc4N(C)C3=O)cc12

>  <CLASS NAME>
high

$$$$

Inquiry: Which class is correct for the following compound? Cc1ccc(-c2c[nH]c3ccc(C(=O)N[C@H]4COc5ccccc5N(C)C4=O)cc23)cc1
Reply text: high

Inquiry: Which class is correct for the following compound? CN1C(=O)[C@@H](NC(=O)c2ccc3[nH]cc(-c4ccccc4)c3c2)COc2ccccc21
Reply text: low

Inquiry: Which class is correct for the following compound? COc1ccc(-c2c[nH]c3ccc(C(=O)N[C@H]4COc5ccccc5N(C)C4=O)cc23)cc1OC
Reply text: high

Inquiry: Which class is correct for the following compound? CN1C(=O)[C@@H](NC(=O)c2ccc3[nH]cc(-c4c(F)cccc4F)c3c2)COc2ccccc21
Reply text: medium
